- ASSAY INFO: Cytotoxicity against African green monkey Vero cells assessed as reduction in cell viability measured after 72 hrs by MTT assay
- Type: toxicity, cell-based
- EXPERIMENTAL CONTEXT: Chlorocebus sabaeus (African green monkey)
Please provide measured IC50 at 72 h for the entries that follow.

Quick one: IC50 at 72 h of COc1ccc(C(=O)c2c(CC(C)C)sc3ccccc23)cc1 ?
> 10 µM

Quick one: IC50 at 72 h of CCCc1sc2ccccc2c1C(=O)c1ccc(OC)cc1 ?
> 10 µM

Quick one: IC50 at 72 h of CCCc1sc2ccccc2c1C(=O)c1cccc2ccccc12 ?
> 10 µM

Quick one: IC50 at 72 h of COc1ccc(-c2sc3ccccc3c2C(=O)c2cccc3ccccc23)cc1 ?
> 10 µM

Quick one: IC50 at 72 h of CCCc1nc2ccccc2n1C(=O)c1ccc(OC)cc1 ?
0.3 µM

Quick one: IC50 at 72 h of COc1ccc(C(=O)c2c(-c3ccc(OC)cc3)sc3ccccc23)cc1 ?
> 10 µM

====

- MEASURED TARGET: Cannabinoid receptor 2 (Homo sapiens, UniProt P34972)
- Sequence (P34972 whole entry): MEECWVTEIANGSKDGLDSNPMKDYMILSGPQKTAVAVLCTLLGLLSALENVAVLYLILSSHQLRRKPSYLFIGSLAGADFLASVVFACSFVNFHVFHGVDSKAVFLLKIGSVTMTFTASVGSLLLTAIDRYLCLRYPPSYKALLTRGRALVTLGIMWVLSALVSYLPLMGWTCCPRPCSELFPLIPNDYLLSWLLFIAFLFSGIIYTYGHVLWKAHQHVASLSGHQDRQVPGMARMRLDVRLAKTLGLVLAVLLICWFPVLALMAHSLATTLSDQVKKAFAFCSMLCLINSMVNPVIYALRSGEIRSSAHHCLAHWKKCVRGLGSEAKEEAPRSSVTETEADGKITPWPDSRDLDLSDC
- ASSAY INFO: Displacement of [3H]CP-55940 from human recombinant CB2 receptor expressed in HEK293 cell membranes incubated for 1.5 hrs
ENDPOINT LABEL: pIC50
Scale explanation: pIC50 corresponds to minus log10 of a concentration expressed in moles per litre.

Checklist item: pIC50 tested on Cannabinoid receptor 2 (Homo sapiens, UniProt P34972), entry O=C(c1cc2ccccc2s1)c1cccc2ccccc12 , value?
5.39

Checklist item: pIC50 tested on Cannabinoid receptor 2 (Homo sapiens, UniProt P34972), entry CC(C)c1nc2ccccc2n1C(=O)c1cccc2ccccc12 , value?
5.68

Checklist item: pIC50 tested on Cannabinoid receptor 2 (Homo sapiens, UniProt P34972), entry O=C(c1cccc2ccccc12)n1c(C2CCCC2)nc2ccccc21 , value?
5.54

Checklist item: pIC50 tested on Cannabinoid receptor 2 (Homo sapiens, UniProt P34972), entry COc1ccc(C(=O)n2c(-c3ccc(OC)cc3)nc3ccccc32)cc1 , value?
5.23

Checklist item: pIC50 tested on Cannabinoid receptor 2 (Homo sapiens, UniProt P34972), entry CCc1sc2ccccc2c1C(=O)c1ccc(OC)cc1 , value?
5.18

Checklist item: pIC50 tested on Cannabinoid receptor 2 (Homo sapiens, UniProt P34972), entry CC(C)Cc1nc2ccccc2n1C(=O)c1cccc2ccccc12 , value?
6.30

Checklist item: pIC50 tested on Cannabinoid receptor 2 (Homo sapiens, UniProt P34972), entry COc1ccc(-c2sc3ccccc3c2C(=O)c2cccc3ccccc23)cc1 , value?
5.85

Checklist item: pIC50 tested on Cannabinoid receptor 2 (Homo sapiens, UniProt P34972), entry CC(C)(C)c1nc2ccccc2n1C(=O)c1cccc2ccccc12 , value?
6.52

Checklist item: pIC50 tested on Cannabinoid receptor 2 (Homo sapiens, UniProt P34972), entry COc1ccc(-c2nc3ccccc3n2C(=O)c2cccc3ccccc23)cc1 , value?
5.11

Checklist item: pIC50 tested on Cannabinoid receptor 2 (Homo sapiens, UniProt P34972), entry O=C(c1cccc2ccccc12)c1csc2ccccc12 , value?
5.96

Checklist item: pIC50 tested on Cannabinoid receptor 2 (Homo sapiens, UniProt P34972), entry COc1ccc(C(=O)n2c(C3CCCCC3)nc3ccccc32)cc1 , value?
5.55
